TARGET_OF_ASSAY: purified His-tagged Stat3 (murine Stat3, recombinant, expressed in BL21(DE3)) (murine) (UniProt P42227)
Sequence (P42227 whole entry): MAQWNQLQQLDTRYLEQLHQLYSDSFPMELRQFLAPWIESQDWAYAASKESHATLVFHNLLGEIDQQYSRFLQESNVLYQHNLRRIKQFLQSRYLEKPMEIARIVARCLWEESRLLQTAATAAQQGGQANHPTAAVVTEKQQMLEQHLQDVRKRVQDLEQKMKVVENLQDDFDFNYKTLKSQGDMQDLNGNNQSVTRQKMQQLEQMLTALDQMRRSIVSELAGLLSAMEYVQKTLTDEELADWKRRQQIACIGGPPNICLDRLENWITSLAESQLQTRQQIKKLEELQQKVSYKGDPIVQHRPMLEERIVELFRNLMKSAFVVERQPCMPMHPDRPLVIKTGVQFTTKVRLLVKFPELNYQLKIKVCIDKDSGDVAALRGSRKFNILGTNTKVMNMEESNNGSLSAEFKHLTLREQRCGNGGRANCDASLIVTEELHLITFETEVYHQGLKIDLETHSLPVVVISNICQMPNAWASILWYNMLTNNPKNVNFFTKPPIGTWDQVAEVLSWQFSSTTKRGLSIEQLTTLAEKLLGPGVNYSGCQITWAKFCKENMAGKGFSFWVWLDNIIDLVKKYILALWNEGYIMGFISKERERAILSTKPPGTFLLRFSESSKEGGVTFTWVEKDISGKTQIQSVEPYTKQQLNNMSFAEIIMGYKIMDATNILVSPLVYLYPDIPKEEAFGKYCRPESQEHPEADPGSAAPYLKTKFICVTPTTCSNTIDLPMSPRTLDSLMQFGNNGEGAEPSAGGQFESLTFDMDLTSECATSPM
PROTOCOL_DESCRIPTION: SPR (SensiQ), peptide as analyte over His-Stat3 immobilised on HisCap/Ni-NTA sensor chip
RESULT_TYPE: pKd
Please express pKd as -log10 of the molar concentration.

Short answer for GpYLPQTV-NH2, high affinity Stat3-binding phosphoTyr peptide derived from the interleukin-6 receptor subunit gp-130 : pKd was 7.62

* * *

TARGET_OF_ASSAY: purified His-tagged Stat3 (murine Stat3, recombinant, expressed in BL21(DE3)) (murine) (UniProt P42227)
PROTOCOL_DESCRIPTION: fluorescence polarization competition; competitor/probe 5-carboxyfluorescein-GpYLPQTV-NH2 (10 nM), His-Stat3 150 nM
RESULT_TYPE: IC50 (nM)
Write it as a number; the unit nM goes unstated.

For this substance ( GpYLPQTV-NH2, high affinity Stat3-binding phosphoTyr peptide derived from the interleukin-6 receptor subunit gp-130 ), measured IC50 is 300
